IC50 values by entry
target: KRAS protein containing G12D mutation (Homo sapiens (Human), UniProt P01116, G12D); assay: SOS-catalyzed nucleotide exchange assay (GNE), TR-FRET; format: biochemical; conditions: biotinylated KRAS G12D, SOS and GTP, 60-minute incubation
Sequence (P01116 other isoform, or with tags, fused parts or gaps G12D (already in the parent)): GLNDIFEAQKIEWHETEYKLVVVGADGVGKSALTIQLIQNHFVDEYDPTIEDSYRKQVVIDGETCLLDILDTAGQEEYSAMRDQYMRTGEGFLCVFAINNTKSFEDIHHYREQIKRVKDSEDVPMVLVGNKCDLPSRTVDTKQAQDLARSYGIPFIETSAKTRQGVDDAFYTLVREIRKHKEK
Structures can show the parent of a compound that is named as a salt.
Answer with a number only, understood to be in nM.

Worked set:
C[C@]12CC[C@H](CN(c3nc(OC[C@H]4CCNC4)nc4c(F)c(-c5cc(O)cc6ccccc56)c(Cl)cc34)C1)N2 [Example 119, TFA] | 1440
C[C@]12CCC(CN(c3nc(OC[C@]4(CN5CCC(CO)C5)CC4(F)F)nc4c(F)c(-c5cc(O)cc6cccc(Cl)c56)c(F)cc34)C1)N2 (mixture of isomers) [Ex. 218] | 6.54
CN(C)CC1(COc2nc(N3C[C@H]4CC[C@@](C)(C3)N4)c3cc(F)c(-c4cc(O)cc5ccccc45)c(F)c3n2)CC1C(=O)O (single isomer, unassigned) [Ex. 107a] | 648
CN(C[C@@]1(COc2nc(N3C[C@H]4CC[C@@](C)(C3)N4)c3cc(F)c(-c4cc(O)cc5cccc(Cl)c45)c(F)c3n2)CC1(F)F)[C@@H]1CCC[C@H]1O [Ex. 217a] | 12.7

We next turn to a different compound, shown below.
Q: Which IC50 reading was recorded for the compound CN(C)C1CC[C@H]2C[C@@]12COc1nc(N2C[C@H]3CC[C@@](C)(C2)N3)c2cc(F)c(-c3cc(O)cc4ccccc34)c(F)c2n1 (single isomer, unassigned) [Example 12a] ?
Result: 1.89

---

molecular target: KRAS protein containing G12D mutation (Homo sapiens (Human), UniProt P01116, G12D); assay: SOS-catalyzed nucleotide exchange assay (GNE), TR-FRET; format: biochemical; conditions: biotinylated KRAS G12D, SOS and GTP, 60-minute incubation
Assay Metric: IC50 (nM)
Answer with a number only, understood to be in nM.

Q: Which IC50 reading was recorded for the compound CN(C)CC1(COc2nc(N3C[C@H]4C[C@@H](O)[C@@H](C3)N4)c3cc(Cl)c(-c4cc(O)cc5ccccc45)c(F)c3n2)CC1 (single isomer, unassigned) [Example 18b] ?
Result: 77.3

Q: Which IC50 reading was recorded for the compound Cc1cc2[nH]nc(C)c2c(-c2c(F)cc3c(N4C[C@H]5CC[C@@](C)(C4)N5)nc(OC[C@@H]4C[C@@H](F)CN4C)nc3c2F)c1Cl ?
Result: 792

Q: Which IC50 reading was recorded for the compound C[C@]12CC[C@H](CN(c3nc(OC[C@@]45CCCN4C[C@H](F)C5)nc4c(F)c(-c5cc(N)c(F)c6cccc(Cl)c56)c(F)cc34)C1)N2 (single isomer, unassigned) [Ex. 163a] ?
Result: 47.5

Q: Which IC50 reading was recorded for the compound Cc1cc2[nH]nc(C)c2c(-c2c(F)cc3c(N4C[C@H]5CC[C@@H](C4)N5)nc(OCC4(CN5CCOCC5)CC4)nc3c2F)c1OC(F)F ?
Result: 39

Q: Which IC50 reading was recorded for the compound C#Cc1cccc2nc(N)cc(-c3c(F)cc4c(N5CC6CCC(C5)N6)nc(OC[C@@]56CCCN5C[C@H](F)C6)nc4c3F)c12 (single isomer, unassigned) [Ex. 203b] ?
Result: 3.32

Q: Which IC50 reading was recorded for the compound Cc1cc(N)nc(-c2c(Cl)cc3c(N4C[C@H]5CC[C@@H](C4)N5)nc(OC[C@@]45CCCN4C[C@H](F)C5)nc3c2F)c1C(F)(F)F [Ex. 228b] ?
Result: 2.43

Q: Which IC50 reading was recorded for the compound C[C@]12CCC(CN(c3nc(OC[C@@]45CCCN4C[C@H](F)C5)nc4c(F)c(-c5cc(O)cc6cccc(C(F)F)c56)c(F)cc34)C1)N2 (single isomer, unassigned) [Ex. 181b] ?
Result: 141

Q: Which IC50 reading was recorded for the compound CN(C)CC1(COc2nc(N3CC4CC(O)C(C3)N4)c3cc(Cl)c(-c4cc(O)cc5ccccc45)c(F)c3n2)CC1 (single isomer, unassigned) [Example 19a] ?
Result: 1180

Q: Which IC50 reading was recorded for the compound C[C@]12CC[C@H](CN(c3nc(OCC45CCCN4CCC(F)(F)C5)nc4c(F)c(-c5cc(O)cc6cccc(Cl)c56)c(F)cc34)C1)N2 (single isomer, unassigned) [Example 116b] ?
Result: 473

Q: Which IC50 reading was recorded for the compound C#Cc1cccc2cc(O)c(Cl)c(-c3c(F)cc4c(N5CC6CC[C@@](C)(C5)N6)nc(OC[C@@]56CCCN5C[C@H](F)C6)nc4c3F)c12 (single isomer, unassigned) [Ex. 143b] ?
Result: 74.5

Q: Which IC50 reading was recorded for the compound Nc1cc(Cl)c(C(F)(F)F)c(-c2c(Cl)cc3c(N4CC5CCC(C4)N5)nc(OC[C@@]45CCCN4C[C@H](F)C5)nc3c2F)n1 (single isomer, unassigned) [Ex. 154b] ?
Result: 381

Q: Which IC50 reading was recorded for the compound C[C@]12CC[C@H](CN(c3nc(OC[C@@]45CCCN4C[C@H](F)C5)nc4c(F)c(-c5cc(F)cc6cccc(Cl)c56)c(F)cc34)C1)N2 ?
Result: 1280

Q: Which IC50 reading was recorded for the compound CNc1cc(C)c(C(F)(F)F)c(-c2c(F)cc3c(N4CC5CCC(C4)N5)nc(OCC4(CN5CCOCC5)CC4)nc3c2F)n1 (single isomer, unassigned) [Ex. 137a] ?
Result: 1610

Q: Which IC50 reading was recorded for the compound Cc1nc(N)cc(-c2c(F)cc3c(N4C[C@H]5CC[C@@](C)(C4)N5)nc(OCC4(CN5CCOCC5)CC4)nc3c2F)c1C(F)(F)F (single isomer, unassigned) [Ex. 139a] ?
Result: 1670

Q: Which IC50 reading was recorded for the compound Cc1cc(N)nc(-c2c(F)cc3c(N4CC5CC[C@@](C)(C4)N5)nc(OC[C@@]45CCCN4C[C@H](F)C5)nc3c2F)c1C(F)(F)F (single isomer, unassigned) [Ex. 200b] ?
Result: 1130

Q: Which IC50 reading was recorded for the compound CN(C)C[C@@]1(COc2nc(N3C[C@H]4CC[C@@](C)(C3)N4)c3cc(C#N)c(-c4cc(O)cc5ccccc45)c(F)c3n2)CC1(F)F [136b] ?
Result: 32.4

---

biological target: KRAS protein containing G12D mutation (Homo sapiens (Human), UniProt P01116, G12D); assay: SOS-catalyzed nucleotide exchange assay (GNE), TR-FRET; type: biochemical; details: biotinylated KRAS G12D, SOS and GTP, 60-minute incubation
IC50 values by entry

Worked set:
NC(=O)C1(COc2nc(N3CC4CCC(C3)N4)c3cc(F)c(-c4cc(O)cc5ccccc45)c(F)c3n2)CNC1 | 2140 nM
C#Cc1cccc2cc(N)nc(-c3c(F)cc4c(N5CC6CCC(C5)N6)nc(OC[C@@]56CCCN5C[C@H](F)C6)nc4c3F)c12 (single isomer, unassigned) [Ex. 148a] | 13.6 nM
CCC(=O)Oc1cc(-c2c(F)cc3c(N4CC5CC[C@@](C)(C4)N5)nc(OC[C@@]45CCCN4C[C@H](F)C5)nc3c2F)c2c(Cl)cccc2c1 (single isomer, unassigned) [Ex. 162a] | 23.1 nM
Cc1c(C(F)(F)F)c(-c2c(F)cc3c(N4CC5CCC(C4)N5)nc(OC[C@@]45CCCN4C[C@H](F)C5)nc3c2F)c2cn[nH]c2c1F (single isomer, unassigned) [Ex. 166a] | 944 nM

We next turn to a different compound, shown below.
Q: Which IC50 reading was recorded for the compound C[C@]12CC[C@H](CN(c3nc(OC[C@@]45CCCN4C[C@H](F)C5)nc4c(F)c(-c5c6cn[nH]c6cc6cccc(Cl)c56)c(F)cc34)C1)N2 ?
Result: 27.3 nM

---

biological target: KRAS protein containing G12D mutation (Homo sapiens (Human), UniProt P01116, G12D); test: SOS-catalyzed nucleotide exchange assay (GNE), TR-FRET; format: biochemical; settings: biotinylated KRAS G12D, SOS and GTP, 60-minute incubation
Assay Metric: IC50 (nM)
Answer with a number only, understood to be in nM.

Worked set:
CN(C)C[C@@]1(COc2nc(N3C[C@H]4CC[C@@](C)(C3)N4)c3cnc(-c4cc(O)cc5cccc(Cl)c45)c(F)c3n2)CC1(F)F | 1.56
Cc1cc2[nH]ncc2c(-c2c(F)cc3c(N4CC5CCC(C4)N5)nc(OC[C@@]45CCCN4C[C@H](F)C5)nc3c2F)c1OC(F)(F)Cl (single isomer, unassigned) | 1.74
C[C@@]12CC(O)[C@@](C)(CN(c3nc(OC[C@@]45CCCN4C[C@H](F)C5)nc4c(F)c(-c5cc(O)cc6cccc(Cl)c56)c(F)cc34)C1)N2 (stereo partly drawn) | 2.09
Cc1nc(N)c(C)c(-c2c(F)cc3c(N4C[C@H]5CC[C@@H](C4)N5)nc(OC[C@@]45CCCN4C[C@H](F)C5)nc3c2F)c1C1CC1 | 1790
Cc1cc(N)nc(-c2c(F)cc3c(N4CC5CCC(C4)N5)nc(OCC4(CN5CCOCC5)CC4)nc3c2F)c1Cl | 1350

Q: Which IC50 reading was recorded for the compound Cc1cc2[nH]ncc2c(-c2c(F)cc3c(N4C[C@H]5CC[C@@](C)(C4)N5)nc(OC[C@@]45CCCN4C[C@H](F)C5)nc3c2F)c1OC(F)(F)F (single isomer, unassigned) [Ex. 126b] ?
Result: 67.9
